target: rat CYP2E1, Cyp2e1 (gene 25086) (UniProt P05182); assay: NVS_ADME_rCYP2E1: NovaScreen (NVS) CYP450-related Enzyme Activity (ADME) Assay for rat CYP2E1
Sequence (P05182 whole entry, looked up): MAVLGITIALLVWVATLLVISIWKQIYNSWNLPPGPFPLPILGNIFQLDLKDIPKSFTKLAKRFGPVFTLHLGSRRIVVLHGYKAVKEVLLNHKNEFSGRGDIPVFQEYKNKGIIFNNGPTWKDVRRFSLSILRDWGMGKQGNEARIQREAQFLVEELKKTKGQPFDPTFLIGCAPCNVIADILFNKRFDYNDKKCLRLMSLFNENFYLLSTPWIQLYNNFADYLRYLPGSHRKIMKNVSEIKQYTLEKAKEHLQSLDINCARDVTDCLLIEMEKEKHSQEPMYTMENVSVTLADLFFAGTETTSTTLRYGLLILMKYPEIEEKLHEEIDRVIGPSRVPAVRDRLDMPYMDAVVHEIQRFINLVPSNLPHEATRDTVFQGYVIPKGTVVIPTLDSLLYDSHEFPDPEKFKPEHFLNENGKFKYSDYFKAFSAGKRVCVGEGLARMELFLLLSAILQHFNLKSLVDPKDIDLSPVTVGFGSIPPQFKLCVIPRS
Records with an inconclusive call do not appear. Calls of active or inactive are those of the source. Rule for the calls: active = hit-call score of the fitted dose curve at least 0.9, where 1 is the maximum; inconclusive = response in the unintended direction; inactive = score below 0.9.
Use one of these outcomes when replying: y = active, n = inactive

// param item: `CNC(=S)S` ; yields the recorded call
n

# outcome recorded in this test, key = `CCOP(=S)(OCC)Oc1ccc2c(C)c(Cl)c(=O)oc2c1`
n

Query: recorded result category for `COP(=S)(OC)Oc1ccc([N+](=O)[O-])c(C)c1` in this test
n

# outcome recorded in this test, key = `COP(=S)(OC)SCn1nnc2ccccc2c1=O`
n

Outcome? `N#Cc1c[nH]cc1-c1cccc2c1OC(F)(F)O2`
y

What did this assay record as the result for CC(C1CC1)C(O)(Cn1cncn1)c1ccc(Cl)cc1 (stereo unspecified) ?
n
